Ki tested on Adenosine receptor A1 (Cavia porcellus, UniProt P47745): recorded values
Sequence (P47745 whole entry): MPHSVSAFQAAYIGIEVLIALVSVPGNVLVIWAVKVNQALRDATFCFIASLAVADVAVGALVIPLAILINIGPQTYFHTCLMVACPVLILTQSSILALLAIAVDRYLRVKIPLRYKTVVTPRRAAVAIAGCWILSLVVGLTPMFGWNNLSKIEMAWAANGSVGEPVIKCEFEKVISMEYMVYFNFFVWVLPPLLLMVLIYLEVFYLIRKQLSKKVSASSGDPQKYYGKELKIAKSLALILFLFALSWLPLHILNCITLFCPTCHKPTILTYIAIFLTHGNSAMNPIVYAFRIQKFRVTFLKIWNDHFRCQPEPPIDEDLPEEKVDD
MEASURED_METRIC: Ki

>>> recorded_measurement("CCn1c(=O)c2nc(C3CCCC3)[nH]c2n(CC)c1=O")
"19 nM"
>>> recorded_measurement("CCCn1c(=O)c2nc(C3CC4C=CC3C4)[nH]c2n(CCC)c1=O (stereo in doubt; 17)")
"4.3 nM"
>>> recorded_measurement("FC(F)(F)c1nnc2c(NC3CCCC3)nc3ccc(Cl)cc3n12")
"36 nM"
>>> recorded_measurement("CCCn1c(=O)c2nc(C34CC5CC(CC(C5)C3)C4)[nH]c2n(CCC)c1=O")
"13 nM"
>>> recorded_measurement("CCCn1c(=O)[nH]c(=O)c2[nH]c(C3CCCC3)nc21")
"1400 nM"
>>> recorded_measurement("CCCn1c(=O)c2c(nc(C(C3CC3)C3CC3)n2CC(=O)O)n(CCC)c1=O")
"6900 nM"

---

- System: Rattus norvegicus
- ASSAY_DETAILS: Ratio of urinary excretion value (urinary volume) in treated rats to that in control rats, at a peroral dose of 25 mg/Kg
- Assay type: functional, Urine
MEASURED_METRIC: T/C

>>> recorded_measurement("Cn1c(=O)c2c(ncn2C)n(C)c1=O")
1.68
>>> recorded_measurement("NS(=O)(=O)c1cc(C(=O)O)c(NCc2ccco2)cc1Cl [FUROSEMIDE]")
1.75
>>> recorded_measurement("Nc1nc2ccc(Cl)cc2n2c(-c3ccccc3)nnc12")
0.85
>>> recorded_measurement("CCCn1c(=O)c2nc(C3CC4C=CC3C4)[nH]c2n(CCC)c1=O (stereo in doubt; 17)")
2.06

---

Parameter T/C: see the listing below.
- System: Rattus norvegicus
- ASSAY_DETAILS: Ratio of urinary excretion value (Na+ concentration) in treated rats to that in control rats, at a peroral dose of 0.4 mg/Kg
- Assay type: functional, Urine
MEASURED_METRIC: T/C

>>> recorded_measurement("CCn1c(=O)c2nc(C3CCCC3)[nH]c2n(CC)c1=O")
1.79
>>> recorded_measurement("CCCCn1c(=O)c2nc(C3CCCC3)[nH]c2n(CCCC)c1=O")
1.61
>>> recorded_measurement("CCCn1c(=O)c2nc(C(C3CC3)C3CC3)[nH]c2n(CCC)c1=O")
1.45
>>> recorded_measurement("CCn1c(=O)c2nc(C(C3CC3)C3CC3)[nH]c2n(CC)c1=O")
2.27
>>> recorded_measurement("CCCn1c(=O)c2c(nc(C(C3CC3)C3CC3)n2C)n(CCC)c1=O")
0.91
>>> recorded_measurement("Cn1c(=O)c2nc(C34CC5CC(CC3C5)C4)[nH]c2n(C)c1=O")
1.74
>>> recorded_measurement("CCn1c(=O)c2nc(C34CC5CC(CC3C5)C4)[nH]c2n(CC)c1=O")
1.33
